targetUnderTest: T1, human GPVI (full-length) expressed on stably transfected CHO cells (human, UniProt Q9HCN6 21-339)
T1 chain: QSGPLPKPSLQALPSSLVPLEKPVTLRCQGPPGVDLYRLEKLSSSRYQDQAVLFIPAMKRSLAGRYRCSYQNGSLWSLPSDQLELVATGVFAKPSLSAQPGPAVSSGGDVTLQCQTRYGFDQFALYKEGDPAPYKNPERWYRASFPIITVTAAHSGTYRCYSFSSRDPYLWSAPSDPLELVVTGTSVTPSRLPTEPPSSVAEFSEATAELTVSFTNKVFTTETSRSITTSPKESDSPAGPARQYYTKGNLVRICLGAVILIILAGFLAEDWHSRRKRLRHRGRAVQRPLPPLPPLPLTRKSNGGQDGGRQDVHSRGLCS
procedureText: Cell ELISA (MSD) on CHO cells expressing GPVI
endpoint: EC50 (nM)
Enter your answer as a number in nM; do not include the unit.

Would you please look over these solved cases?
Fab #2 comprising a modified heavy chain constant region (Fab, V domains shown, Human Fab from the Ylanthia library; produced in HKB11 cells; also called Fab #2 mod; HC) VH: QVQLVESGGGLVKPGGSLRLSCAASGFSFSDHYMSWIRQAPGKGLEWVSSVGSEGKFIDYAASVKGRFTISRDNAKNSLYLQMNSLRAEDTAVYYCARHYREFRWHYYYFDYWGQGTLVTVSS VL: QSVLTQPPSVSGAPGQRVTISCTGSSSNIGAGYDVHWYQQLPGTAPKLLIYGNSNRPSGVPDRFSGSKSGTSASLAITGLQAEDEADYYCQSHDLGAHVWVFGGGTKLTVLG | 0.78
Fab #3 comprising a modified heavy chain constant region (Fab, V domains shown, Human Fab from the Ylanthia library; produced in HKB11 cells; also called Fab #3 mod; HC) VH: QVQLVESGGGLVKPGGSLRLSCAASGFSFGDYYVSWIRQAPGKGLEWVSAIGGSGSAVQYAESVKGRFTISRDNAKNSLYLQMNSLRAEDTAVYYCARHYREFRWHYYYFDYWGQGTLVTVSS VL: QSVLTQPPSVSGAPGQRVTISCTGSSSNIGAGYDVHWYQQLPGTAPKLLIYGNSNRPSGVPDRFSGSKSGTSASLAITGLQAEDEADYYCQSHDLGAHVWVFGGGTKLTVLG | 0.77

Now turn to the next binder.
Report measured EC50; entry is Fab #4 comprising a modified heavy chain constant region (Fab, V domains shown, Human Fab from the Ylanthia library; produced in HKB11 cells; also called Fab #4 mod; HC) VH: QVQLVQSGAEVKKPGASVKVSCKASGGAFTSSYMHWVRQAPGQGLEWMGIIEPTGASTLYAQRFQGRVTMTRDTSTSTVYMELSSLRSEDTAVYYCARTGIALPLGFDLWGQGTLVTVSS VL: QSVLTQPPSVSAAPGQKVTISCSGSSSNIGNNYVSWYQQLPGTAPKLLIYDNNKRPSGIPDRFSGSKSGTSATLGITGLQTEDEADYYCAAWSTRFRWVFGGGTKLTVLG
0.78
